# TEST_DETAILS: Effect of verapamil, PEG 400 and EDTA on trans-enterocyte transport of CA
# Type: in vitro ADME, human
# RECORDED_CONDITIONS: human, Caco-2, CA 50 μM, 1.0 h, + 5 mmoL/L EDTA; read-out: Papp AP to BL
PROPERTY_NAME: Papp A→B at 1 h, 50 μM (×10⁻⁶ cm/s)
Field: numeric (×10⁻⁶ cm/s). Do not append units.

Papp A→B at 1 h, 50 μM lookup needed for CC(C)c1cc2c(c(O)c1O)[C@@]1(C(=O)O)CCCC(C)(C)[C@@H]1CC2 , thanks. 0.24

###

# TEST_DETAILS: Trans-enterocyte transport of CA in Caco-2 cell monolayer
# Type: in vitro ADME, human
# RECORDED_CONDITIONS: human, Caco-2; CA 75 μM, 1.0 h
PROPERTY_NAME: Papp B→A at 1 h, 75 μM (×10⁻⁶ cm/s)
Field: numeric (×10⁻⁶ cm/s). Do not append units.

Papp B→A at 1 h, 75 μM lookup needed for CC(C)c1cc2c(c(O)c1O)[C@@]1(C(=O)O)CCCC(C)(C)[C@@H]1CC2 , thanks. 0.86

Data origin: paper PMC8698657
